# Assay system: full-length human PRMT1 isoform 1 (GST-tagged) (Homo sapiens)
# Sequence (Q99873 with tags, fused parts or gaps): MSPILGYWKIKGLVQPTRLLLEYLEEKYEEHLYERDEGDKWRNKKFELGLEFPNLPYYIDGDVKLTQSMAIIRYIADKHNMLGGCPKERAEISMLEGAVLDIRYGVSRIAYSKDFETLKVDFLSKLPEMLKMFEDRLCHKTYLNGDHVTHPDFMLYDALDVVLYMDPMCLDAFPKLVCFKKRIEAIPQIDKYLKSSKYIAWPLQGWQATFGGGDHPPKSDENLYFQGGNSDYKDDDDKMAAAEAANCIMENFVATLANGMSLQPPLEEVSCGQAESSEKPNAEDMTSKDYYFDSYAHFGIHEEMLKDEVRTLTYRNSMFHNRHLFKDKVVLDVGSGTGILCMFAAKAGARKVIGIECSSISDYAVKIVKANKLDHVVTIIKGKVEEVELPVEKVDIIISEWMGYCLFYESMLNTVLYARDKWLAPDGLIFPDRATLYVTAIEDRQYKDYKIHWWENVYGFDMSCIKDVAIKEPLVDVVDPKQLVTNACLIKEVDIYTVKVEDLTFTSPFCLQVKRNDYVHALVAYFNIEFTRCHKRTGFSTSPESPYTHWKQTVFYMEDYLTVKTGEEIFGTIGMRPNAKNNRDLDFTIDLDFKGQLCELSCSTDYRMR
# Experiment: PRMT1 Biochemical Assay (3H-SAM Flashplate, peptide substrate)
# Conditions used: single experiment or average of multiple experiments
Entries whose IC50 is below 20 nM take true; entries at or above 20 nM take false.

Compound	Assigned class
CNCCN(C)Cc1c[nH]nc1C1CCC(C)(C)C(O)C1 (centres unmarked) [Compound 185]	true
CNCCN(C)Cc1c[nH]nc1C1CCC2(CC1)CNC(=O)C2 (centres unmarked) [Compound 147]	true
CCC(=O)N(CC1CCOCC1)[C@H]1CC[C@H](c2n[nH]cc2CN(C)CCNC)CC1 [Compound 109]	false
CNCCN(C)Cc1c[nH]nc1C1CCC2(CCOC2)CC1 (centres unmarked) [Compound 54]	true

* * *

# Assay system: full-length human PRMT6 (Flag- and His-tagged) (Homo sapiens)
# Experiment: PRMT6 Biochemical Assay (3H-SAM Flashplate, peptide substrate)
# Conditions used: single experiment or average of multiple experiments; read-out: Biochemical IC50 PRMT6
Observed property: log10 of IC50 (log10 of the value in nM)

Compound	log10 of IC50
CNCCN(C)Cc1c[nH]nc1C1CCC2(CC1)CC(=O)N(CCC(C)C)C2 (stereo not drawn)	2.08
CNCCN(C)Cc1c[nH]nc1C1CCC(CCOC)CC1 (stereo not drawn)	1.61
CNCCN(C)Cc1c[nH]nc1[C@H]1CCC(C)(C)[C@@H](C(=O)NCCOC)C1	2.15
CNCCN(C)Cc1c[nH]nc1C1CCC(C)CC1 (stereo not drawn)	0.86
CNCCN(C)Cc1c[nH]nc1C1CC(COC)CC(COC)C1 (stereo not drawn)	3.08
CCN(C(=O)CC1CCOCC1)[C@H]1CC[C@H](c2n[nH]cc2CN(C)CCNC)CC1	1.71

* * *

# Assay system: full-length human PRMT1 isoform 1 (GST-tagged) (Homo sapiens)
# Experiment: PRMT1 Biochemical Assay (3H-SAM Flashplate, peptide substrate)
# Conditions used: single experiment or average of multiple experiments
pIC50: −log10 of the molar value.
Observed property: pIC50

Compound	Reported
CNCCN(C)Cc1c[nH]nc1[C@H]1CC[C@@]2(CCOC2(C)C)CC1 [Compound 106]	8.02
CNCCN(C)Cc1c[nH]nc1[C@H]1CC[C@@]2(CCN(Cc3ccc(F)cc3)C2=O)CC1 [Compound 125]	8.28
CNCCN(C)Cc1c[nH]nc1C1CCC(C)(C)C(C(=O)NCCC(C)C)C1 (stereo not drawn) [Compound 91]	7.78
CCOC[C@@H]1C[C@H](COCC)C[C@H](c2n[nH]cc2CN(C)CCNC)C1 [Compound 189]	6.97
CNCCN(C)Cc1c[nH]nc1[C@H]1CC[C@H](COC)CC1 [Compound 167]	7.96
CNCCN(C)Cc1c[nH]nc1C1CCC2(CCC(C)(C)CC2)OC1 (stereo not drawn) [Compound 65]	8.02
CNCCN(C)Cc1c[nH]nc1[C@H]1CC[C@H](N(CC(C)C)C(=O)CCOc2ccccc2)CC1 [Compound 232]	8.04
CNCCN(C)Cc1c[nH]nc1C1CCC(COC(C)C)(COC(C)C)CC1 [Compound 61]	7.69
CNCCN(C)Cc1c[nH]nc1C1=CCC(CCOC)(CCOC)CC1 [Compound 173]	7.63

* * *

# Assay system: full-length human PRMT6 (Flag- and His-tagged) (Homo sapiens, UniProt Q96LA8)
# Sequence (Q96LA8 with tags, fused parts or gaps): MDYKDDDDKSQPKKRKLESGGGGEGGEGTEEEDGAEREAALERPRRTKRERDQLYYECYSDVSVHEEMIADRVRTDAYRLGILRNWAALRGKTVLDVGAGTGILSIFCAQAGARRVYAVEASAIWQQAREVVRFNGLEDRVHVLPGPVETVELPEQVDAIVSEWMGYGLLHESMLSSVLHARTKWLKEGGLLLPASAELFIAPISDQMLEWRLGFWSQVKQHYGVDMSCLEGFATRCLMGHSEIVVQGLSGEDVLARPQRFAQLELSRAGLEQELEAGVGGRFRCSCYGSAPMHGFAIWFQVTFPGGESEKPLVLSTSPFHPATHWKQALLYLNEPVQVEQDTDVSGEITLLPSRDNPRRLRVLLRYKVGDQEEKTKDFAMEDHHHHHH
# Experiment: PRMT6 Biochemical Assay (3H-SAM Flashplate, peptide substrate)
# Conditions used: read-out: Biochemical IC50 PRMT6
pIC50: −log10 of the molar value.
Examples of molecules with documented pIC50 follow.

Molecule	pIC50
CNCCN(C)Cc1c[nH]nc1[C@H]1CC[C@H](N(CC(C)C)C(=O)CC2CCOCC2)CC1 [Compound 193]	> 7.00
CCOCC1CC(COCC)CC(c2n[nH]cc2CN(C)CCNC)C1 (stereo not shown) [Compound 119]	5.52 to 6.00
CNCCN(C)Cc1c[nH]nc1C1CCC2(CC1)CN(C)C(=O)N2CC(C)C (stereo not shown) [Compound 151]	> 7.00
CNCCN(C)Cc1c[nH]nc1C1CC(OC(C)C)CC(OC(C)C)C1 (stereo not shown) [Compound 118]	< 5.00

* * *

pIC50 reference
# Assay system: full-length human PRMT6 (Flag- and His-tagged) (Homo sapiens)
# Experiment: PRMT6 Biochemical Assay (3H-SAM Flashplate, peptide substrate)
# Conditions used: single experiment or average of multiple experiments; read-out: Biochemical IC50 PRMT6
pIC50: −log10 of the molar value.

Molecule	pIC50
CNCCN(C)Cc1c[nH]nc1[C@H]1CC[C@H](N(CCOC)C(=O)CCC(C)C)CC1 [Compound 254]	7.75
CNCCN(C)Cc1c[nH]nc1C1CCC2(CC1)CC(=O)N(C)C2 (centres unmarked) [Compound 157]	7.32
CNCCN(C)Cc1c[nH]nc1C1CCN(C(=O)CC(C)C)CC1 [Compound 40]	7.70
CNCCN(C)Cc1c[nH]nc1[C@@H]1CCC(C)(C)[C@@H](C(=O)NCCCOC)C1 [Compound 271]	6.92
CNCCN(C)Cc1c[nH]nc1[C@H]1CC[C@@H](N(CCC(C)C)C(=O)CCOC)CC1 [Compound 235]	7.47
CNCCN(C)Cc1c[nH]nc1[C@H]1CC[C@H](OCCOc2ccccc2)CC1 [Compound 187]	6.58
CNCCN(C)Cc1c[nH]nc1[C@H]1CC[C@H](N(CC(C)C)C(=O)CCOc2ccccc2)CC1 [Compound 232]	7.71
CNCCN(C)Cc1c[nH]nc1C1CCC2(CC1)CN(C)C(=O)N2C (centres unmarked) [Compound 172]	7.34

* * *

# Assay system: full-length human PRMT8 isoform 1 (Homo sapiens)
# Sequence (Q9NR22 whole entry, canonical isoform): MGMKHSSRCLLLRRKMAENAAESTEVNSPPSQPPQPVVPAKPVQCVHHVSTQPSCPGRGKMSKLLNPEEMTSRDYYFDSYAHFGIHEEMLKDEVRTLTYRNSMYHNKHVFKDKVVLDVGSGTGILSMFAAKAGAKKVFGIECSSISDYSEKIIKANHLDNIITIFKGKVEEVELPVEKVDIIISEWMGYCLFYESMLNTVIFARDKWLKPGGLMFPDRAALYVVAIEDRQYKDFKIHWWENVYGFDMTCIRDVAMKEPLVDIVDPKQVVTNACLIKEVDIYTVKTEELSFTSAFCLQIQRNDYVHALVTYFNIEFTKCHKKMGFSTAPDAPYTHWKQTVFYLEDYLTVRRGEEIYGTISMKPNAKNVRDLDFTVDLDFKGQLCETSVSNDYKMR
# Experiment: PRMT8 Biochemical Assay (3H-SAM Flashplate, peptide substrate)
# Conditions used: single experiment or average of multiple experiments; read-out: Biochemical IC50 PRMT8
# maps each entry to its IC50

Compound	Measure unit	Value operator	IC50
CCOC[C@@H]1C[C@H](COCC)C[C@H](c2n[nH]cc2CN(C)CCNC)C1	nM	=	478
CNCCN(C)Cc1c[nH]nc1/C=C/c1ccc(-c2ccccc2)cc1	nM	=	420
CN(CCN)Cc1c[nH]nc1/C=C/c1cccc(C(F)(F)F)c1	nM	=	690
CNCCN(C)Cc1c[nH]nc1C1CCC(C)(C)[C@@H](C(=O)OC)C1 (stereo partly shown)	nM	=	24.5
CCC(CC)OC1CCC(c2n[nH]cc2CN(C)CCNC)CC1 (stereo not shown)	nM	=	24.2
CNCCN(C)Cc1c[nH]nc1C1CCC(C)(C)[C@H](C(=O)OC)C1 (stereo partly shown)	nM	=	44
CNCCN(C)Cc1c[nH]nc1C1CC(OC(C)C)CC(OC(C)C)C1 (stereo not shown)	nM	>	10000
CCN(C(=O)CC(C)C)[C@H]1CC[C@@H](c2n[nH]cc2CN(C)CCNC)CC1	nM	=	10.9
CN(CCN)Cc1c[nH]nc1C1CC1	nM	>	10000
CNCCN(C)Cc1c[nH]nc1[C@H]1CC[C@H](OC2CCCCC2)CC1	nM	=	116
CNCCN(C)Cc1c[nH]nc1C1CCCC(COCCOC)C1 (stereo not shown)	nM	=	69.2
CNCCN(C)Cc1c[nH]nc1[C@H]1CC[C@H](C(=O)N(C)CCOc2ccccc2)CC1	nM	=	10.8
CNCCN(C)Cc1c[nH]nc1[C@H]1CC[C@@H](C(=O)NCCOc2ccccc2)CC1	nM	=	8.28
CNCCN(C)Cc1c[nH]nc1[C@H]1CC[C@]2(CCC(C)(C)O2)CC1	nM	=	11.6
CNCCN(C)Cc1c[nH]nc1C1CCC2(CC1)CC(=O)N(CCC(C)C)C2 (stereo not shown)	nM	=	18.1
CNCCN(C)Cc1c[nH]nc1[C@H]1CC[C@H](O)C2(CCCCC2)C1 (racemic)	nM	=	47.3
CNCCN(C)Cc1c[nH]nc1C1CCC(COC)CC1 (stereo not shown)	nM	=	12.8
CC1CCC(c2c[nH]nc2CN(C)CCN)CC1 (stereo not shown)	nM	=	140
CNCCN(C)Cc1c[nH]nc1C1CCN(C(=O)CC(C)C)CC1	nM	=	7010

* * *

# Assay system: full-length human PRMT6 (Flag- and His-tagged) (Homo sapiens, UniProt Q96LA8)
# Experiment: PRMT6 Biochemical Assay (3H-SAM Flashplate, peptide substrate)
# Conditions used: single experiment or average of multiple experiments; read-out: Biochemical IC50 PRMT6
pIC50: −log10 of the molar value.
Observed property: pIC50

Compound	Reported
CNCCN(C)Cc1c[nH]nc1[C@@H]1CCC(C)(C)[C@@H](C(=O)NCCOC)C1	6.97
CN(CCN)Cc1n[nH]cc1C1CCC(N2CCOCC2)CC1 (stereo not drawn)	7.70
CNCCN(C)Cc1c[nH]nc1C1CCC2(CC1)NC(=O)NC2=O (stereo not drawn)	7.42
CNCCN(C)Cc1c[nH]nc1C1CCC2(CC1)CN(C)C(=O)N2CC(C)C (stereo not drawn)	7.32
CNCCN(C)Cc1c[nH]nc1C#Cc1cccc(OC)c1	7.15
CNCCN(C)Cc1c[nH]nc1C1CCC2(CCCC2)OC1 (stereo not drawn)	7.44
CNCCN(C)Cc1c[nH]nc1C1CCC(=O)N(CCc2ccccc2)C1 (stereo not drawn)	7.53
CNCCN(C)Cc1c[nH]nc1C1CCC(C)(C)[C@H](C(=O)NCC(C)C)C1 (stereo partly drawn)	7.09
CNCCN(C)Cc1c[nH]nc1C1CCN(CC(C)C)CC1	8.00
CNCCN(C)Cc1c[nH]nc1C1CCC2(CC1)OCC(C(C)C)CO2 (stereo not drawn)	7.25
CNCCN(C)Cc1c[nH]nc1[C@H]1CC[C@H](N(CC(C)C)C(=O)CC2CCOCC2)CC1	7.02
CNCCN(C)Cc1c[nH]nc1C1CCC2(CC1)CN(CC(C)C)C(=O)N2C (stereo not drawn)	7.42
CNCCN(C)Cc1c[nH]nc1[C@H]1CC[C@H](N(CCOc2ccccc2)C(=O)CCOC)CC1	7.50
CNCCN(C)Cc1c[nH]nc1[C@H]1CC[C@@]2(CCOC2(C)C)CC1	7.87
CNCCN(C)Cc1c[nH]nc1[C@H]1CC[C@H](C(=O)NCCOc2ccccc2)CC1	7.94
CNCCN(C)Cc1c[nH]nc1C1CCC(O)C2(CCCC2)C1 (stereo not drawn)	7.13
CNCCN(C)Cc1c[nH]nc1C1CCC2(CCCO2)CC1 (stereo not drawn)	7.62
CNCCN(C)Cc1c[nH]nc1[C@H]1CC[C@H](N(CCC(C)C)C(=O)CCOC)CC1	7.20

Data provenance is patent US11512053B2.
